Each entry below carries its measured pKi, system: human cloned 5-HT6 receptors (Homo sapiens).
Sequence (P50406 whole entry): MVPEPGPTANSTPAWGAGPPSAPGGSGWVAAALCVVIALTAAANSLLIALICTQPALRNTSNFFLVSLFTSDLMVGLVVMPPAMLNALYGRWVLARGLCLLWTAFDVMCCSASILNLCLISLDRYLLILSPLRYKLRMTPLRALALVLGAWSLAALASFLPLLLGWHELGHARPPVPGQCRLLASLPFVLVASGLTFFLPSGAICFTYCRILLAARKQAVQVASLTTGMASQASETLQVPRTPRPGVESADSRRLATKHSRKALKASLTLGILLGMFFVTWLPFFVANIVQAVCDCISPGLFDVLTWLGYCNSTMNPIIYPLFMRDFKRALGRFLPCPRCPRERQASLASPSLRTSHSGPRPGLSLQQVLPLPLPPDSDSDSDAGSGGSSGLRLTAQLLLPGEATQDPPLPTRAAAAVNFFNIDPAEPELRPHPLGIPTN
pKi: −log10 of the molar value.

Q. Look up pKi: O=S(=O)(c1ccccc1)c1nn(Cc2cccc(Cl)c2)c2c(OCCN3CCCCC3)cccc12 [Example 87]
A. < 7.35

Q. I would be grateful if you could share the reported pKi for C[C@@H]1CN(Cc2ccc3[nH]nc(S(=O)(=O)c4cccc5ccccc45)c3c2)CCN1 [Example 200] .
A. 8.00 to 11.00

Q. Entry O=S(=O)(c1cccc2ccccc12)c1nn(Cc2cccc(Cl)c2)c2c(OCCN3CCCCC3)cc(F)cc12 [Example 111] : reported pKi = ?
A. < 7.35

Q. Please report the recorded pKi for CC(C)NCCCCc1ccc2[nH]nc(S(=O)(=O)c3cccc4ccccc34)c2c1 [Example 192] .
A. 8.00 to 11.00

Q. Please look up its pKi: CC(c1ccc2[nH]nc(S(=O)(=O)c3cccc4ccccc34)c2c1)N1CCN(C)CC1 (centres unmarked) [Example 203]
A. 8.00 to 11.00
